pKi: −log10 of the molar value.
For UniProtKB Q16790, measured pKi is reported for the entries below.
reported.property: pKi

>>> df
                               input_smiles      study_system  quantitative_result
0  CCB(CC)OC(=O)[C@@H](N)CCCCNC(=S)Nc1ccc(S(N)(=O)=O)cc1Cl  UniProtKB Q16790                 7.04
1  CCB(CC)OC(=O)[C@@H](N)CCCCNC(=S)NCCc1ccc(S(N)(=O)=O)cc1  UniProtKB Q16790                 8.02
2  CCB(CC)OC(=O)[C@@H](N)CCCCNC(=S)Nc1ccc(S(=O)(=O)NCc2ccc(S(N)(=O)=O)cc2)cc1  UniProtKB Q16790                 8.11

[1] CCB(CC)OC(=O)[C@@H](N)CCCCNC(=S)Nc1ccc(S(=O)(=O)Nc2nnc(S(N)(=O)=O)s2)cc1
[2] CCB(CC)OC(=O)[C@@H](N)CCCCNC(=S)Nc1ccc(S(N)(=O)=O)cc1Br
Query block: Could you point out whether the larger pKi belongs to 1 or to 2 ? Field: selected label. Fill in the label of the entry you choose.
Result block: 1
